assay target: hERG (KCNH2) (Homo sapiens, UniProt Q12809)
Sequence (Q12809 whole entry): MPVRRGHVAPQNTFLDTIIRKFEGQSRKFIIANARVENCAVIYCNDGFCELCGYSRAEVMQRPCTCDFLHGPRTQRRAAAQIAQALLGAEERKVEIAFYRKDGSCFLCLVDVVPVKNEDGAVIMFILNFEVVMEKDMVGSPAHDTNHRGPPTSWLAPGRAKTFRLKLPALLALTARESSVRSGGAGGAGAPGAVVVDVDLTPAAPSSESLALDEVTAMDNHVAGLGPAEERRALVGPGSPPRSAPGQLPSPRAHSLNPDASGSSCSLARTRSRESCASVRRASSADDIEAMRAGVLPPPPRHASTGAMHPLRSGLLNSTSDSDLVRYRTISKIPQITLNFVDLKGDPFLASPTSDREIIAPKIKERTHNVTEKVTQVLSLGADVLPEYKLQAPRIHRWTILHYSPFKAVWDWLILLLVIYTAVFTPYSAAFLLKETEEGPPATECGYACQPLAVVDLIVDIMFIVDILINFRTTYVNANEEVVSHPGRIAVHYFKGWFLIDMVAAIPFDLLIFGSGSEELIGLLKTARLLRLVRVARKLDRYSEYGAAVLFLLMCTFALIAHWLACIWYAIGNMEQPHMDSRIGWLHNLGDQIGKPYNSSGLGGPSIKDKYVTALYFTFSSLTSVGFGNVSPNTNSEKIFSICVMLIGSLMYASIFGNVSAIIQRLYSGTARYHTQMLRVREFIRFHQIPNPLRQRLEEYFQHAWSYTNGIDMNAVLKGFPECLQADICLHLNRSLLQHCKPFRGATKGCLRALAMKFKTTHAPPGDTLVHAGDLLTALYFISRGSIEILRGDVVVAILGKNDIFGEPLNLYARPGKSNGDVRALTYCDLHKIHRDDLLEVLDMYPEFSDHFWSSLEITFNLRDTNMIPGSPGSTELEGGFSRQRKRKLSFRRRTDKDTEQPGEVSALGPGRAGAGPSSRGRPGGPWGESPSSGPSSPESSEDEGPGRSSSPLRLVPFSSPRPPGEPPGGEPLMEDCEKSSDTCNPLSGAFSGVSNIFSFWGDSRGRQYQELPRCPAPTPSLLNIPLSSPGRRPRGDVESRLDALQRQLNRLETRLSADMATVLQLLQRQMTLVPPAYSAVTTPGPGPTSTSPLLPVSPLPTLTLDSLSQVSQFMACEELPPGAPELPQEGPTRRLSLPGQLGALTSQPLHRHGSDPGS
assay notes: Inhibition of hERG expressed in CHO cells at 40 uM by whole cell patch clamp assay
Type: cell-based
measurement parameters: CHO cells that express hERG
endpoint label: inhibition at 40 µM (%)
Numeric only. Scale: %

Param item = Nc1ncc(-c2ccc(S(=O)(=O)N3CCN(CCCCc4cn(CCOCCOCCOCCOCCOCCNc5cccc6c5C(=O)N(C5CCC(=O)NC5=O)C6=O)nn4)CC3)cc2)nc1C(=O)Nc1cccnc1 (stereo unspecified) ; retrieve measured inhibition at 40 µM. 15.4

* * *

Consider the following molecules and their measured Activity readings.
assay target: Protein cereblon/Glycogen synthase kinase-3 alpha (Homo sapiens, UniProt P49840+Q96SW2)
Sequence (P49840 2-483 limits assumed): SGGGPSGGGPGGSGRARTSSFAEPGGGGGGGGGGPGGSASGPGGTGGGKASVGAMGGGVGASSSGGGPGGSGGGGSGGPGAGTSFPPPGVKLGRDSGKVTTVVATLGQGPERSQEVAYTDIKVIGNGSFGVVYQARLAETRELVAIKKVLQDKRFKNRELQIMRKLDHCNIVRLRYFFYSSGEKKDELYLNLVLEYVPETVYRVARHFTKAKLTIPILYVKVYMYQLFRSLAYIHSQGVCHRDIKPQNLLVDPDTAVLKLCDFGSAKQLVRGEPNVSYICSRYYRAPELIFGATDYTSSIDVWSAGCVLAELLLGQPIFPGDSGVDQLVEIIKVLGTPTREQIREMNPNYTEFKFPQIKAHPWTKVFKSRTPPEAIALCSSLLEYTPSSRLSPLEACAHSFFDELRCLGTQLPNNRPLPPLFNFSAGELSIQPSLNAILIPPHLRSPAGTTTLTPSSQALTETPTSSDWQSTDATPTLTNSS
Sequence (Q96SW2 whole entry partner): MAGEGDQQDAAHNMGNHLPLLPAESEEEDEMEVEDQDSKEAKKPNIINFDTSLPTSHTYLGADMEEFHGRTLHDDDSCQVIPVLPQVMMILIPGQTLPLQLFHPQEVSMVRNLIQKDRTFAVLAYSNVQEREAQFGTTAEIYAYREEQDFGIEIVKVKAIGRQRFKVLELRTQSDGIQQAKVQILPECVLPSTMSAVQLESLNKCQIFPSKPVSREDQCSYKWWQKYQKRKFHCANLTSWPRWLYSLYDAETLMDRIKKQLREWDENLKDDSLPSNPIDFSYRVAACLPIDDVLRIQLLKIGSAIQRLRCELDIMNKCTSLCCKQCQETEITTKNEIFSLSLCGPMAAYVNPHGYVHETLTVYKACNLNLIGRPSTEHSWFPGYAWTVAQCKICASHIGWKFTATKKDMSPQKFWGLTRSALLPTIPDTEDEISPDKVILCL
assay notes: Protac activity at CRBN/GSK3alpha in human SH-SY5Y cells assessed as induction of GSK3alpha protein degradation at 1 uM measured after 24 hrs
Assay type: cell-based
# unit: % | format: bare number

Use the examples below as a reference point.
COc1ccc(-c2ocnc2C(=O)NCCCc2cn(CCOCCOCCNc3cccc4c3C(=O)N(C3CCC(=O)NC3=O)C4=O)nn2)cc1Cl (stereo unspecified) : 43.8
COc1ccc(-c2ocnc2C(=O)NCCCn2cc(COCCOCCOCCOc3cccc4c3CN(C3CCC(=O)NC3=O)C4=O)nn2)cc1Cl (stereo unspecified) : 38.7
Nc1ncc(-c2ccc(S(=O)(=O)N3CCN(CCc4cn(CCOCCOCCOCCNc5cccc6c5C(=O)N(C5CCC(=O)NC5=O)C6=O)nn4)CC3)cc2)nc1C(=O)Nc1cccnc1 (stereo unspecified) : 90.7
COc1ccc(-c2ocnc2C(=O)NCCCc2cn(CCOCCOCCOCCOCCOCCOCCNc3cccc4c3C(=O)N(C3CCC(=O)NC3=O)C4=O)nn2)cc1Cl (stereo unspecified) : 60.7

// query Activity value for entry Nc1ncc(-c2ccc(S(=O)(=O)N3CCN(Cc4cn(CCOCCOCCOCCNc5cccc6c5C(=O)N(C5CCC(=O)NC5=O)C6=O)nn4)CC3)cc2)nc1C(=O)Nc1cccnc1 (stereo unspecified) 75.6

What about this molecule? COc1ccc(-c2ocnc2C(=O)NCCCc2cn(CCOCCOCCNc3cccc4c3C(=O)N(C3CCC(=O)NC3=O)C4=O)nn2)cc1I (stereo unspecified) 46.1

Numbers sourced from ChEMBL document CHEMBL5038618.
